molecular target: BRD4 Bromodomain 2 (BRD4 BD2) (Homo sapiens, UniProt O60885); construct: 333-460 were cloned, expressed, and purified to homogeneity; test: AlphaScreen binding assay, BRD4 BD2; conditions: His-tagged BRD4 BD2 100 nM, biotinylated H4 (1-21) K5/8/12/16 tetra-acetylated peptide 100 nM, compounds listed under IC50 range headings
pIC50: −log10 of the molar value.
value_type: pIC50

# input Give the value of pIC50 reported for the following: COC(=O)N1c2ccc(-c3cnn(CCS(C)(=O)=O)c3)c(Oc3ncc(C)cn3)c2CC[C@@H]1C [I-582]
# output 6.30 to 7.30

# input Tell us which pIC50 value is on record for CC(=O)N1c2ccc(-c3ccc4c(c3)CCN4S(C)(=O)=O)c(Oc3ncc(F)cn3)c2CC[C@@H]1C [I-548]
# output 6.30 to 7.30

# input # return recorded pIC50 for entry CC(=O)N1c2ccc(-c3cnn(C4CC4)c3)c(Oc3ccc(C#N)cc3)c2CC[C@@H]1C [I-217]
# output > 7.30

# input Provide measured pIC50 value, entry: COC(=O)N1c2ccc(-c3cnn(C4CCN(C)C4)c3)c(OC3CCC3)c2CC[C@@H]1C (some centres unmarked) [I-247]
# output 6.30 to 7.30

# input Dear colleague, please send me the reported pIC50 for CC(=O)N1c2ccc(-c3cnn(C4CC4)c3)c(OCC(C)(C)F)c2CC[C@@H]1C [I-67] when you can.
# output > 7.30

# input Give me measured pIC50, please, for this molecule: COC(=O)N1c2ccc(-c3cnn(C4CC4)c3)c(Oc3ccccc3Cl)c2CC[C@@H]1C [I-215]
# output 6.30 to 7.30

# input Please give measured pIC50 of the following entry: CC(=O)N1c2ccc(-c3cnn(C4CCN(C)CC4)c3)c(Oc3ccccc3C#N)c2CC[C@@H]1C [I-246]
# output > 7.30

# input Supply reported pIC50 belonging to this molecule: COC(=O)N1c2ccc(-c3cnn(C4CCNCC4)c3)c(OCC3CCCC3)c2CC[C@@H]1C [I-462]
# output > 7.30

====

molecular target: BRD4 Bromodomain 2 (BRD4 BD2) (Homo sapiens, UniProt O60885); construct: 333-460 were cloned, expressed, and purified to homogeneity; experiment: AlphaScreen binding assay, BRD4 BD2; conditions: His-tagged BRD4 BD2 100 nM, biotinylated H4 (1-21) K5/8/12/16 tetra-acetylated peptide 100 nM, compounds listed under IC50 range headings
pIC50: −log10 of the molar value.
For each of the molecules below, state its pIC50.

# input Respond only with pIC50 recorded for COC(=O)N1c2ccc(-c3cnn(C4CCNCC4)c3)c(Oc3ncc(C(F)(F)F)cn3)c2CC[C@@H]1C
# output 6.30 to 7.30

# input // Input: CC(=O)N1c2ccc(-c3cnn(C4CC4)c3)c(Oc3nccs3)c2CC[C@@H]1C . Output its pIC50 only.
# output > 7.30

# input Look up and report measured pIC50 for this entry: COC(=O)N1c2ccc(-c3cnn(C4CC4)c3)c(OCCF)c2CC[C@@H]1C
# output > 7.30

# input Give the value of pIC50 reported for the following: COC(=O)N1c2ccc(-c3cnn(C4CCNCC4)c3)c(Oc3cccc(F)c3C#N)c2CC[C@@H]1C
# output > 7.30

# input Please give measured pIC50 of the following entry: CCN1CC(Oc2c(-c3cnn(C4CC4)c3)ccc3c2CC[C@H](C)N3C(C)=O)C1
# output ≤ 6.30

# input Look up and state reported pIC50 for COC(=O)N1c2ccc(-c3cnn(C4CC4)c3)c(Oc3ccc(F)cc3)c2CC[C@@H]1C
# output 6.30 to 7.30

# input // fetch pIC50 given entry COC(=O)N1c2ccc(-c3cnn([C@H]4CCNC[C@H]4F)c3)c(OC3CCC3)c2CC[C@@H]1C
# output > 7.30

# input Give pIC50 for COC(=O)N1c2ccc(-c3cnn(C4CNC4)c3)c(Oc3cccc(F)c3F)c2CC[C@@H]1C
# output > 7.30
